Where do the numbers come from? From patent US4442090A.

test: Urinary excretions of β-lactam antibiotics after rectal suppository (rabbit); type: in vivo; conditions: FK-749 125 mg (potency), Compound (I) 5%, Witepsol H-15
Measured Parameter: Urinary excretions (%) 2-4 hr.
In your response, the unit should come after the numeric value.

Lookup: Fill in reported Urinary excretions (%) 2-4 hr. for this entry: CCCCCCCCCCNC(=O)/C=C\C(=O)O
Found: 18.0%

---
Lookup: Fill in reported Urinary excretions (%) 2-4 hr. for this entry: CCCCCCCCCC(=O)N[C@H](C(=O)O)C(C)C
Found: 5.6%

Lookup: Fill in reported Urinary excretions (%) 2-4 hr. for this entry: CCCCCCCCCCNC(=O)CCC(=O)O
Found: 18.0%

Lookup: Fill in reported Urinary excretions (%) 2-4 hr. for this entry: CCCCOc1ccc(C(=O)O)cc1
Found: 19.2%

Lookup: Fill in reported Urinary excretions (%) 2-4 hr. for this entry: CCCCCCCCNC(=O)c1ccccc1C(=O)O [Compound 14-Na, 2-Carboxy-N--(n-octyl)benzamide]
Found: 19.0%

---

experiment: Urinary excretions of β-lactam antibiotics after rectal suppository (rabbit); assay type: in vivo; settings: 6059-S 125 mg (potency), Compound (I) 5%, Witepsol H-15
Measured Parameter: Urinary excretions (%) 0-2 hr.
Quick reminder: number only, in %, skip the unit.

Lookup: Fill in reported Urinary excretions (%) 0-2 hr. for this entry: CCCCCCCC(=O)N(C)c1ccc(C(=O)O)cc1
Found: 42.2

---
Lookup: Fill in reported Urinary excretions (%) 0-2 hr. for this entry: CCCCOc1ccc(C(=O)N[C@@H](Cc2ccccc2)C(=O)O)cc1
Found: 46.0

Lookup: Fill in reported Urinary excretions (%) 0-2 hr. for this entry: O=C(O)CCCCCCCCCCCCC(=O)O
Found: 42.2

Lookup: Fill in reported Urinary excretions (%) 0-2 hr. for this entry: O=C(N[C@@H](Cc1ccccc1)C(=O)O)c1ccccc1O [Compound 19-Na, N--(2-Hydroxybenzoyl)phenylalanine]
Found: 38.0

Lookup: Fill in reported Urinary excretions (%) 0-2 hr. for this entry: CCCC(=O)NC(C(=O)O)c1ccccc1 (racemic)
Found: 47.2
